system: Escherichia coli TOP10; assay: shrunken log2 fold change of peptide-encoding DNA abundance (4.5 h post-induction vs induction); higher = less antimicrobial activity (less host growth inhibition); conditions: time post-induction: 4.5 h; library: site-saturation at positions 5, 18, 19, 20
Output label 1 for shrunken log2 fold change not less than -0.2; output label 0 otherwise.

Some entries whose results are on file:
[
  {
    "Query sequence": "RRIRQRPPRLPRPRPRPSKPPRP",
    "Category label": "label 0"
  },
  {
    "Query sequence": "RRIRERPPRLPRPRPRPVYLPRP",
    "Category label": "label 0"
  }
]

Q: Decide: shrunken log2 fold change of RRIRKRPPRLPRPRPRPWDNPRP >= -0.2?
Result: label 1

Q: Decide: shrunken log2 fold change of RRIRVRPPRLPRPRPRPDRYPRP >= -0.2?
Result: label 1

---

system: Escherichia coli TOP10; assay: shrunken log2 fold change of peptide-encoding DNA abundance (4.5 h post-induction vs induction); higher = less antimicrobial activity (less host growth inhibition); conditions: time post-induction: 4.5 h; library: site-saturation at positions 5, 18, 19, 20
Observable: shrunken log2 fold change
API doc: respond with a numeric literal and nothing else, no unit.

[
  {
    "Query sequence": "RRIRTRPPRLPRPRPRPLNDPRP",
    "shrunken log2 fold change": -0.192
  },
  {
    "Query sequence": "RRIRDRPPRLPRPRPRPGVNPRP",
    "shrunken log2 fold change": 0.148
  }
]

Reported shrunken log2 fold change of RRIRIRPPRLPRPRPRPELAPRP : 0.254

Reported shrunken log2 fold change of RRIRARPPRLPRPRPRPCNDPRP : -0.0678

Reported shrunken log2 fold change of RRIRARPPRLPRPRPRPVMEPRP : 1.04

Reported shrunken log2 fold change of RRIRTRPPRLPRPRPRPNQYPRP : -0.446

Reported shrunken log2 fold change of RRIRTRPPRLPRPRPRPWRDPRP : 0.00299

Reported shrunken log2 fold change of RRIRDRPPRLPRPRPRPIRWPRP : 0.13

---

tested on: Escherichia coli TOP10; assay: shrunken log2 fold change of peptide-encoding DNA abundance (4.5 h post-induction vs induction); higher = less antimicrobial activity (less host growth inhibition); conditions: time post-induction: 4.5 h; library: site-saturation at positions 5, 18, 19, 20
# shrunken log2 fold change listing for each entry below
API doc: respond with a numeric literal and nothing else, no unit.

[
  {
    "Query sequence": "RRIRNRPPRLPRPRPRPGHCPRP",
    "Numeric value": -0.062
  }
]

Reported shrunken log2 fold change of RRIRGRPPRLPRPRPRPMTYPRP : 0.274

Reported shrunken log2 fold change of RRIRIRPPRLPRPRPRPHFSPRP : -0.181

Reported shrunken log2 fold change of RRIRDRPPRLPRPRPRPRIYPRP : -0.173

---

system: Escherichia coli TOP10; test: shrunken log2 fold change of peptide-encoding DNA abundance (4.5 h post-induction vs induction); higher = less antimicrobial activity (less host growth inhibition); conditions: time post-induction: 4.5 h; library: site-saturation at positions 5, 18, 19, 20;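 also: peptides expressed intracellularly from a pBAD plasmid library in pooled LB shake-flask culture, induced with 0.3% L-arabinose, DNA abundance read by NGS, three biological replicates, DESeq2 with apeglm shrinkage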
Output satisfied for shrunken log2 fold change not less than -0.04; output not satisfied otherwise.

Q: Decide: shrunken log2 fold change of RRIRHRPPRLPRPRPRPHCKPRP >= -0.04?
Result: satisfied

Q: Decide: shrunken log2 fold change of RRIRTRPPRLPRPRPRPGDNPRP >= -0.04?
Result: satisfied

Q: Decide: shrunken log2 fold change of RRIRNRPPRLPRPRPRPPSHPRP >= -0.04?
Result: not satisfied

Q: Decide: shrunken log2 fold change of RRIRERPPRLPRPRPRPTTHPRP >= -0.04?
Result: not satisfied

Q: Decide: shrunken log2 fold change of RRIRLRPPRLPRPRPRPLTKPRP >= -0.04?
Result: not satisfied

Q: Decide: shrunken log2 fold change of RRIRRRPPRLPRPRPRPWHLPRP >= -0.04?
Result: not satisfied

Q: Decide: shrunken log2 fold change of RRIRSRPPRLPRPRPRPVYEPRP >= -0.04?
Result: not satisfied

Q: Decide: shrunken log2 fold change of RRIRQRPPRLPRPRPRPSFWPRP >= -0.04?
Result: satisfied

Q: Decide: shrunken log2 fold change of RRIRARPPRLPRPRPRPNEKPRP >= -0.04?
Result: not satisfied

Q: Decide: shrunken log2 fold change of RRIRVRPPRLPRPRPRPQAHPRP >= -0.04?
Result: not satisfied

Recorded values, source the supplement of paper PMC9112550.
